Every entry's value here was drawn from the RNAGym collection of RNA variant scans (doi:10.1126/science.aae0568).

B1: tRNA (parent)
chain: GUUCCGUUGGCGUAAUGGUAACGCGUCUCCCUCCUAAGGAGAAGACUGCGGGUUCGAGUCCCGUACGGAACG

Variants of: B1
PROCEDURE TEXT: yeast fitness relative to wild type (ratio to wild type); higher = fitter; tRNA-Arg(CCU), competitive growth, 37 C, YPD
This sample holds only a part of the variants without activity.
Listed below: yeast fitness values for each entry.

// below: answered variants
{"MUT": "C5G G18A C55A", "RESULT": "≤ 0.5"}
{"MUT": "U8A A40C C46U G52A", "RESULT": "≤ 0.5"}
{"MUT": "A15C A42G C49A G56C G67U", "RESULT": "≤ 0.5"}
{"MUT": "C4U A42C C55U", "RESULT": "≤ 0.5"}
{"MUT": "C5G C11A A15G G18A C30G G68A", "RESULT": "≤ 0.5"}

yeast fitness in this record for G9C U28C G44C U54C : ≤ 0.5

yeast fitness in this record for C5U U19A G51C G58A : ≤ 0.5

yeast fitness in this record for C11G U19A C34G C49G : ≤ 0.5

yeast fitness in this record for G18C G23A C61A : ≤ 0.5

yeast fitness in this record for U3C U32C A65U G68A : ≤ 0.5

yeast fitness in this record for G23C U26G C33G A45C : ≤ 0.5

yeast fitness in this record for U2A U28C C49U C62G : ≤ 0.5

yeast fitness in this record for C4A A21G C33U G51C : ≤ 0.5
